Consider the following binders and their measured OD 450 nm readings.
# tgt: T1, CEACAM1 antigen (Sino Biological, Inc.) (UniProt P13688 35-428)
# T1 construct: Bought antigen coated on the ELISA plate; construct not described; also called CEACAM1 (CD66a) antigen; CD66a
# T1 sequence (looked up): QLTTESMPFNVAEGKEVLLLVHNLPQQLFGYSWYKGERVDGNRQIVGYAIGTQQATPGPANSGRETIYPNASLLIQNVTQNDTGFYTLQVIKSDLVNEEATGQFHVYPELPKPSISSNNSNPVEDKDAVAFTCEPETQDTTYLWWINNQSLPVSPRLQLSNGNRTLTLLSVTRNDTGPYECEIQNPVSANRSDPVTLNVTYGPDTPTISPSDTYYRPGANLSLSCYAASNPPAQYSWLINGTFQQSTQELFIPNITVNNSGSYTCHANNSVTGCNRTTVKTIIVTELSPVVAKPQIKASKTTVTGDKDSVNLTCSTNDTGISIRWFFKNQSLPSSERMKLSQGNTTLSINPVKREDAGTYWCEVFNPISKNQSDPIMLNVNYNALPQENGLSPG
# assayMethodText: ELISA, coated CEACAM1 100 ng/well, antibody 13.72 ng/ml
Number only, in OD; omit the unit.

Exam item: Tell us which OD 450 nm value is on record for recombinant humanized anti-CD66c antibody Protein ID 2938 (Vk5 + VH7) (antibody, human IgG1, V domains shown, also called hu 2938) VH: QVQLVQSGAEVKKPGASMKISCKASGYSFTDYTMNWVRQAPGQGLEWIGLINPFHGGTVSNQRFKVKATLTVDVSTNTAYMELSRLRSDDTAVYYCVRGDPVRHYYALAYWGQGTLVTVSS VL: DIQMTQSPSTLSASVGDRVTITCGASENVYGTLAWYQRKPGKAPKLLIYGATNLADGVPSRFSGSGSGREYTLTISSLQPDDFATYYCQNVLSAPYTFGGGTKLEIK
Marked response: 0.06

Exam item: Supply reported OD 450 nm belonging to this binder: recombinant humanized anti-CD66c antibody Protein ID 3007 (Vk7 + VH6) (antibody, human IgG1, V domains shown, also called hu 3007; #43) VH: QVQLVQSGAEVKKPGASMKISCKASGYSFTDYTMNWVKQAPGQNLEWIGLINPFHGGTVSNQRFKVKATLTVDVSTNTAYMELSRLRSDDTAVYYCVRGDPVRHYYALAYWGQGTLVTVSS VL: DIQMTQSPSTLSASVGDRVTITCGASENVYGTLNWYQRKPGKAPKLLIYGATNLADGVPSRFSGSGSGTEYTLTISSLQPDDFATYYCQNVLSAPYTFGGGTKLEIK
Marked response: 0.46

Exam item: Specify reported OD 450 nm for the binder shown: recombinant humanized anti-CD66c antibody Protein ID 3043 (Vk8 + VH6) (antibody, human IgG1, V domains shown, also called hu 3043; #71) VH: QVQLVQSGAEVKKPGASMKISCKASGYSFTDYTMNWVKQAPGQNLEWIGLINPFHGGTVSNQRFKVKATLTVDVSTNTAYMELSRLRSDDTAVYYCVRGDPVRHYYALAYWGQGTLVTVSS VL: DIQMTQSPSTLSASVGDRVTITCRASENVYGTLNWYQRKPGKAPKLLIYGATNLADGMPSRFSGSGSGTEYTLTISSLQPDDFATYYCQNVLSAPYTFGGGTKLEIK
Marked response: 0.43

Next:
Exam item: Using known records, supply OD 450 nm for anti-CD66c chimeric antibody 8F5 (antibody, human IgG1, V domains shown, also called chimeric 8F5 antibody; chi 8F5) VH: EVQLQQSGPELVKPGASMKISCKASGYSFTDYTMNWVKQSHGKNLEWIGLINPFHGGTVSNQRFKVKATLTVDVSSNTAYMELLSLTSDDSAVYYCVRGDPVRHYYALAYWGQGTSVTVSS VL: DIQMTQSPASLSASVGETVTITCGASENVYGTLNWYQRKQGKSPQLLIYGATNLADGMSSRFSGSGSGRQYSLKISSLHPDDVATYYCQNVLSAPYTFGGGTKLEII
Marked response: 0.51

Exam item: Please look at this binder and report its OD 450 nm: recombinant humanized anti-CD66c antibody Protein ID 3058 (Vk8 + VH11) (antibody, human IgG1, V domains shown, also called hu 3058; #86) VH: QVQLVQSGAEVKKPGASVKISCKASGYSFTDYTMHWVKQAPGQNLEWIGLINPFGGSTSYAQKFKGRVTMTRDTSTNTAYMELSRLRSDDTAVYYCVRGDPVRHYYALAYWGQGTLVTVSS VL: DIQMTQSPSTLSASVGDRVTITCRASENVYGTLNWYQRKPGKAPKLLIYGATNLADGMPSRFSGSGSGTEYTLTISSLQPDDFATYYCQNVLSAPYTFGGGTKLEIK
Marked response: 0.05
